Parameter: self-cleavage. Scope: all listed entries.
B1: Twister Ribozyme (parent)
chain: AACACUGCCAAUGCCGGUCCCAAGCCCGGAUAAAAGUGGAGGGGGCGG

Variants of: B1
Assay: self-cleavage, relative activity (ratio to wild type); higher = more cleavage; co-transcriptional
reportedMetric: self-cleavage

{"mutantId": "A2U C3U", "reportedMetric": "self-cleavage", "readoutValue": 0.221}
{"mutantId": "C14G G43A", "reportedMetric": "self-cleavage", "readoutValue": 0.0789}
{"mutantId": "A23C G39C", "reportedMetric": "self-cleavage", "readoutValue": 0.103}
{"mutantId": "G17U A23U", "reportedMetric": "self-cleavage", "readoutValue": 0.159}
{"mutantId": "A23C U37C", "reportedMetric": "self-cleavage", "readoutValue": 0.0915}
{"mutantId": "C27G A30C", "reportedMetric": "self-cleavage", "readoutValue": 0.105}
{"mutantId": "C5U A40C", "reportedMetric": "self-cleavage", "readoutValue": 0.171}
{"mutantId": "A4U U37C", "reportedMetric": "self-cleavage", "readoutValue": 0.022}
{"mutantId": "A2G C3G", "reportedMetric": "self-cleavage", "readoutValue": 0.583}
{"mutantId": "A30G G48C", "reportedMetric": "self-cleavage", "readoutValue": 1.13}
{"mutantId": "A32G G43C", "reportedMetric": "self-cleavage", "readoutValue": 0.0899}
{"mutantId": "G24A A30C", "reportedMetric": "self-cleavage", "readoutValue": 0.0875}
{"mutantId": "A23C A32C", "reportedMetric": "self-cleavage", "readoutValue": 0.22}
{"mutantId": "G36U A40U", "reportedMetric": "self-cleavage", "readoutValue": 0.141}
{"mutantId": "G45U C46U", "reportedMetric": "self-cleavage", "readoutValue": 0.669}
{"mutantId": "A35U G42A", "reportedMetric": "self-cleavage", "readoutValue": 0.376}
{"mutantId": "C25G G47C", "reportedMetric": "self-cleavage", "readoutValue": 0.142}
{"mutantId": "C9G U31C", "reportedMetric": "self-cleavage", "readoutValue": 0.722}
{"mutantId": "U12A G16C", "reportedMetric": "self-cleavage", "readoutValue": 0.688}
{"mutantId": "U6A G42U", "reportedMetric": "self-cleavage", "readoutValue": 0.163}
{"mutantId": "A22U A40C", "reportedMetric": "self-cleavage", "readoutValue": 0.184}
{"mutantId": "U31G G44A", "reportedMetric": "self-cleavage", "readoutValue": 0.825}

Data origin, for the record: the RNAGym collection of RNA variant scans (doi:10.7554/elife.80360)
